The origin of these recorded values is patent US8003595B2.

Tested on: HeLa
experimentSummary: Internalization of covalent peptide-peroxidase conjugates;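 also: Peptide-peroxidase conjugate at 0.2 µg/mL for 2 hours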
Assay type: cell-based, human
condition: Table 9, 0.2 μg/ml conjugate, 2 hours
Where no end group is shown, it is not given here.
measurementType: Internalization of Peptide-peroxidase

sequencecode="VKRGLKLVKRGLKLVKRGLKL [SEQ ID NO: 3]" result="11.2 pg/10^3 cells"
sequencecode="GKRKKKGKLGKKRDP [SEQ ID NO: 30]" result="11 pg/10^3 cells"
sequencecode="GRPRESGKKRKRKRLKP [SEQ ID NO: 21]" result="13.2 pg/10^3 cells"
sequencecode="QGKSKREKKDRVF [SEQ ID NO: 37]" result="2.5 pg/10^3 cells"
sequencecode="YRSRKYSSWYYALKR [SEQ ID NO: 34]" result="3.4 pg/10^3 cells"
sequencecode="AKTGKRKRSG [SEQ ID NO: 36]" result="4.4 pg/10^3 cells"
sequencecode="GLKKNGSCKRGPR [SEQ ID NO: 33]" result="2.1 pg/10^3 cells"
sequencecode="VKRGLKLRHVRPRVTRMDV (listed as Homo sapiens) [SEQ ID NO: 10]" result="4.7 pg/10^3 cells"

====

experimentSummary: ELISA fixation of biotinylated peptides on sensitized plates
Assay type: binding
condition: read-out: avidity (Kd), quantity of peptides necessary to obtain 50% fixation, Chondroitin B; Table 5
pKd: −log10 of the molar value. Where no end group is shown, it is not given here.
measurementType: pKd

sequencecode="GRPRESGKKRKRKRLKP [SEQ ID NO: 21]" quantitativeresult=6.96
sequencecode="GKRKKKGKLGKKRDP [SEQ ID NO: 30]" quantitativeresult=7.24
sequencecode="AKTGKRKRSG [SEQ ID NO: 36]" quantitativeresult=6.52
sequencecode="RKGFYKRKQCKP [SEQ ID NO: 20]" quantitativeresult=7.40
sequencecode="LRRERQSRLRRERSQSR [SEQ ID NO: 39]" quantitativeresult=7.00
sequencecode="VKRGLKLVKRGLKLVKRGLKL [SEQ ID NO: 3]" quantitativeresult=7.39
sequencecode="GLKKNGSCKRGPR [SEQ ID NO: 33]" quantitativeresult=6.59
sequencecode="YRSRKYSSWYYALKR [SEQ ID NO: 34]" quantitativeresult=7.33
sequencecode="QGKSKREKKDRVF [SEQ ID NO: 37]" quantitativeresult=6.76

====

Tested on: H1299 cells
experimentSummary: Internalization of biotinylated peptide/S-PO complexes
Format: cell-based, human
condition: Conc. b: 4 peptides to one molecule of S-PO (10 μg)
measurementType: S-PO internalized (pg/10^4 cells)

substance="SEQ ID NO: 4: Peptide corresponding to the hypervariable area CD3 of the anti-DNA monoclonal murine antibody F4.1 (RQKYNKRAMDY; Mus musculus x Rattus norvegicus)" subjectoftest="H1299 cells" measurementtype="S-PO internalized" quantitativeresult=280
substance="SEQ ID NO: 16: inclusion, in position 13-19, of SEQ ID NO: 1 in SEQ ID NO: 15 (RHVRPRVTRMDVVKRGLKLRHVRPRVTRMDV; listed as Homo sapiens)" subjectoftest="H1299 cells" measurementtype="S-PO internalized" quantitativeresult=5220
substance="SEQ ID NO: 15: twice the CDR3 region peptide of anti-DNA human monoclonal antibody NE-1 (RGVRPRVTRMDVRHVRPRVTRMDV; listed as Homo sapiens)" subjectoftest="H1299 cells" measurementtype="S-PO internalized" quantitativeresult=6670
substance="SEQ ID NO: 8: Peptide corresponding to the hypervariable CD3 region of human anti-DNA monoclonal antibody RTT79 (VRRSGRVVVPAAPRNRD; listed as Homo sapiens)" subjectoftest="H1299 cells" measurementtype="S-PO internalized" quantitativeresult=1310
substance="SEQ ID NO: 9: Peptide containing SEQ ID NO: 1 and SEQ ID NO: 8 (VKRGLKLVRRSGRVVVPAAPRNRD; listed as Homo sapiens)" subjectoftest="H1299 cells" measurementtype="S-PO internalized" quantitativeresult=8280
substance="SEQ ID NO: 6: Peptide containing part of CDR2 and CDR3 regions of monoclonal murine antibody F4.1 (TYYSDTVKGRFTRQKYNKRA; Mus musculus x Rattus norvegicus)" subjectoftest="H1299 cells" measurementtype="S-PO internalized" quantitativeresult=130
substance="SEQ ID NO: 5: Peptide containing SEQ ID NO: 1 and SEQ ID NO: 4 (VKRGLKLRQKYNKRAMDY; Homo sapiens - Mus musculus - Rattus norvegicus)" subjectoftest="H1299 cells" measurementtype="S-PO internalized" quantitativeresult=6250
substance="SEQ ID NO: 7: Peptide containing SEQ ID NO: 1 and SEQ ID NO: 6 (VKRGLKLTYYSDTVKGRFTRQYNKRA; Homo sapien - Mus musculus - Rattus norvegicus)" subjectoftest="H1299 cells" measurementtype="S-PO internalized" quantitativeresult=220
